# Tested on: E. coli
# assaySummary: in vitro antibacterial activity, two-fold serial dilution in Brain-Heart Infusion Broth (MIC)
# Type: cell-based
# conditionNotes: Escherichia coli, overnight, anaerobic
quantityName: MIC (µg/mL)
Please state the figure in µg/mL; there is no need to write the unit.

These solved cases illustrate the format of a correct answer.
compound: COCCNC(=O)c1c(CS(=O)(=O)CCCOC(C)=O)[n+]([O-])c2ccccc2[n+]1[O-] [NHCH2 CH2 OCH3; SO2 CH2 CH2 CH2 OAc; H]
quantityName: MIC
result: 100

compound: COCCNC(=O)c1c(CS(=O)(=O)CCO)[n+]([O-])c2ccccc2[n+]1[O-] [NHCH2 CH2 OCH3; SO2 CH2 CH2 OH; H]
quantityName: MIC
result: 12.5

compound: CN(C)CCNC(=O)c1c(CS(=O)(=O)CCO)[n+]([O-])c2ccccc2[n+]1[O-] [NHCH2 CH2 N(CH3)2; SO2 CH2 CH2 OH; H]
quantityName: MIC
result: 50

compound: O=C(NCCCO)c1c(CS(=O)(=O)CCO)[n+]([O-])c2ccccc2[n+]1[O-] [NHCH2 CH2 CH2 OH; SO2 CH2 CH2 OH; H]
quantityName: MIC
result: 100

compound: CC(=O)OCCCSCc1c(C(=O)NCCO)[n+]([O-])c2ccccc2[n+]1[O-] [NHCH2 CH2 OH; S(CH2)3 OAc; H]
quantityName: MIC
result: 100

compound: O=C(NCCO)c1c(CSCCO)[n+]([O-])c2ccccc2[n+]1[O-] [NHCH2 CH2 OH; SCH2 CH2 OH; H]
quantityName: MIC
result: 50

compound: CCNC(=O)c1c(CS(=O)(=O)CCCO)[n+]([O-])c2ccccc2[n+]1[O-] [NHCH2 CH3; SO2 CH2 CH2 CH2 OH; H]
quantityName: MIC
result: 6.25

compound: CN(C)CCCS(=O)(=O)Cc1c(C(N)=O)[n+]([O-])c2ccccc2[n+]1[O-] [NH2; SO2 (CH2)3 N(CH3)2; H]
quantityName: MIC
result: 25

## Input Query: MIC; subject: O=C(NCC(O)CO)c1c(CS(=O)(=O)CCO)[n+]([O-])c2ccccc2[n+]1[O-] (stereo not shown) [NHCH2 CHOHCH2 OH; SO2 CH2 CH2 OH; H]
## Output 200

## Input Query: MIC; subject: COCCNC(=O)c1c(CS(=O)(=O)CCCN2CCCCC2)[n+]([O-])c2ccccc2[n+]1[O-] [NHCH2 CH2 OCH3; drawing 25; H]
## Output 50

## Input Query: MIC; subject: CNC(=O)c1c(CS(=O)(=O)CCO)[n+]([O-])c2ccccc2[n+]1[O-] [NHCH3; SO2 CH2 CH2 OH; H]
## Output 0.781

## Input Query: MIC; subject: CCNC(=O)c1c(CSCCCOC(C)=O)[n+]([O-])c2ccccc2[n+]1[O-] [NHCH2 CH3; SCH2 CH2 CH2 OAc; H]
## Output 25

## Input Query: MIC; subject: NC(=O)c1c(CS(=O)(=O)CCCCN2CCCCC2)[n+]([O-])c2ccccc2[n+]1[O-] [NH2; drawing 31; H]
## Output 25
